Target: PTPN2 (Homo sapiens, UniProt P17706)
Sequence (P17706 1-415): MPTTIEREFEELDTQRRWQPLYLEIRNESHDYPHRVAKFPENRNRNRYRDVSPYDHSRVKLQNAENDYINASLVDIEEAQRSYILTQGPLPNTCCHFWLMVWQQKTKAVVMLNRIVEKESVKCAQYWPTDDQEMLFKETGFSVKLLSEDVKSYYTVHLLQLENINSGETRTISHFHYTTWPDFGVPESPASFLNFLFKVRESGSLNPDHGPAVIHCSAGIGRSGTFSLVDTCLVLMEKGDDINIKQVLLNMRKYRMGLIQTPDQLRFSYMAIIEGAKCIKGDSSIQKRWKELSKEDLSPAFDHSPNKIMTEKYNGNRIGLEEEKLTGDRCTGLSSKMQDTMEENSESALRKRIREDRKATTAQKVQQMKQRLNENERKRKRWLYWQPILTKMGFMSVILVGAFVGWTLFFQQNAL
Experiment: Phosphatase activity assay using DiFMUP as substrate
Assay type: biochemical
Parameters: purchased MilliporeSigma SRP5075
Settings: 10 mM DTT, PTPN2 0.15 nM, room temperature, read-out: PTPN2 BCHEM DIFMUP IC50
pIC50: −log10 of the molar value.
condition met means recorded pIC50 is 8 or above; condition not met means it is below 8.

For orientation, consider the following solved cases.
1. Cc1ncc(NCc2cc(O)c(N3CC(=O)NS3(=O)=O)c(F)c2)nc1C [EXAMPLE 19] = condition not met
2. N#Cc1ncc(NCc2cc(O)c(N3CC(=O)NS3(=O)=O)c(F)c2)cn1 [EXAMPLE 32] = condition met
3. Cc1cncc(NCc2cc(O)c(N3CC(=O)NS3(=O)=O)c(F)c2)n1 [EXAMPLE 16] = condition not met
4. Cc1cnc(C)c(NCc2cc(O)c(N3CC(=O)NS3(=O)=O)c(F)c2)n1 [EXAMPLE 18] = condition not met

Could you tell me if the measured pIC50 of O=C1CN(c2c(O)cc(CNc3ccc(C4CC4)nc3)cc2F)S(=O)(=O)N1 [EXAMPLE 10] reaches 8 or more?
condition not met

----------
Biological target: PTPN2 (Homo sapiens, UniProt P17706)
Test: PTPN2 biochemical assay (PhosphoSens, substrate AQT0264)
Settings: PhosphoSens substrate AQT0264 20 μM, room temperature; read-out: PTPN2 BCHEM IC50
Description: A PhosphoSens® kinase assay was performed as described by the vendor (AssayQuant Technologies, Marlborough, MA). […] Reaction progress curves were collected by sampling fluorescence intensity at the excitation wavelength 360 nm (λex360) and emission wavelength 480 nm (λem480) every 71 seconds for one hour using a Synergy H4 plate reader (BioTek Instruments/Agilent Technologies, Winooski, VT) at room temperature. […]
quantity_measured: IC50
In your response, put the unit directly after the numeric value.

Take a look at these entries with their results.
1. Cc1cc(NCc2cc(O)c(N3CC(=O)NS3(=O)=O)c(F)c2)ncn1 [EXAMPLE 26] = 4 nM
2. O=C1CN(c2c(O)cc(CNc3cncc(C(F)(F)F)c3)cc2F)S(=O)(=O)N1 [EXAMPLE 7] = 40 nM
3. Cc1nccc(NCc2cc(O)c(N3CC(=O)NS3(=O)=O)c(F)c2)n1 [EXAMPLE 24] = 30 nM
4. Cc1c(NCc2cc(O)c(N3CC(=O)NS3(=O)=O)c(F)c2)ccnc1-c1ccc(C(C)(C)C)cc1 [EXAMPLE 15] = 30 nM
5. O=C1CN(c2c(O)cc(CNc3cncc(Cl)c3)cc2F)S(=O)(=O)N1 [EXAMPLE 8] = 20 nM

For each of the molecules below, note its IC50.
1. Cc1ncc(C)c(NCc2cc(O)c(N3CC(=O)NS3(=O)=O)c(F)c2)n1 [EXAMPLE 27]
2. O=C1CN(c2c(O)cc(CNc3cncc(-c4ccccc4)c3)cc2F)S(=O)(=O)N1 [EXAMPLE 12]
3. COc1ncc(C)nc1NCc1cc(O)c(N2CC(=O)NS2(=O)=O)c(F)c1 [EXAMPLE 20]

["40 nM", "20 nM", "70 nM"]

For each of the molecules below, note its IC50.
1. Cc1cnc(C)c(NCc2cc(O)c(N3CC(=O)NS3(=O)=O)c(F)c2)n1 [EXAMPLE 18]
2. COc1cncc(NCc2cc(O)c(N3CC(=O)NS3(=O)=O)c(F)c2)n1 [EXAMPLE 23]
3. CC(C)(C)c1ccc(Oc2ccc(NCc3cc(O)c(N4CC(=O)NS4(=O)=O)c(F)c3)cn2)cc1 [EXAMPLE 31]
4. CCN(Cc1cc(O)c(N2CC(=O)NS2(=O)=O)c(F)c1)c1nc(C)cc(-c2ccccc2C#N)n1 [EXAMPLE 14]
5. CC(C)c1cncc(NCc2cc(O)c(N3CC(=O)NS3(=O)=O)c(F)c2)c1 [EXAMPLE 13]
6. CN(C)c1ccc(NCc2cc(O)c(N3CC(=O)NS3(=O)=O)c(F)c2)cn1 [EXAMPLE 1]
7. N#Cc1cncc(NCc2cc(O)c(N3CC(=O)NS3(=O)=O)c(F)c2)c1 [EXAMPLE 4]

1. 50 nM
2. 10 nM
3. 20 nM
4. 210 nM
5. 10 nM
6. 20 nM
7. 44 nM

For each of the molecules below, note its IC50.
1. O=C1CN(c2c(O)cc(CNc3ccc(-c4ccccc4)nc3)cc2F)S(=O)(=O)N1 [EXAMPLE 6]
2. Cc1cncc(NCc2cc(O)c(N3CC(=O)NS3(=O)=O)c(F)c2)n1 [EXAMPLE 16]

1: 70 nM; 2: 1 nM

For each of the molecules below, note its IC50.
1. Cc1cc(NCc2cc(O)c(N3CC(=O)NS3(=O)=O)c(F)c2)cc(C)n1 [EXAMPLE 2]
2. Cc1ncc(NCc2cc(O)c(N3CC(=O)NS3(=O)=O)c(F)c2)nc1C [EXAMPLE 19]
3. Cc1ccnc(C)c1NCc1cc(O)c(N2CC(=O)NS2(=O)=O)c(F)c1 [EXAMPLE 3]
4. O=C1CN(c2c(O)cc(CNc3ccc(C4CC4)nc3)cc2F)S(=O)(=O)N1 [EXAMPLE 10]
5. Cc1cc(NCc2cc(O)c(N3CC(=O)NS3(=O)=O)c(F)c2)nc(C)n1 [EXAMPLE 17]
6. COc1ncc(C)c(NCc2cc(O)c(N3CC(=O)NS3(=O)=O)c(F)c2)n1 [EXAMPLE 22]
7. CC(C)c1cnc(NCc2cc(O)c(N3CC(=O)NS3(=O)=O)c(F)c2)nc1 [EXAMPLE 11]
8. N#Cc1cnc(NCc2cc(O)c(N3CC(=O)NS3(=O)=O)c(F)c2)nc1 [EXAMPLE 9]

10 nM
10 nM
90 nM
10 nM
20 nM
20 nM
140 nM
30 nM
